Exercise: for every item that follows, state its recorded T/C.
# Test system: CD2F1 mice, L1210 leukemia ip, survival T/C
# methodNotes: NCI In Vivo Anticancer Drug Screen. Data for tumor model L1210 Leukemia (intraperitoneal) in CD2F1 (CDF1) mice
# conditionsUsed: endpoint: mean survival time; dose: 100.0 mg/kg/injection; schedule: Q01DX005 (ip); vehicle: other; higher = longer survival
Inconclusive results and toxic doses are left out.

# input # T/C lookup, item CSc1nc(SC)c2c3c(N)ncnc3n(C3OC(CO)C(O)C3O)c2n1 (stereo not given)
# output 119 % of control

# input Follow-up item: `Cn1c(=O)[nH]c2nc(-c3ccccc3)[nH]c2c1=O`
# output 86 % of control

# input Param item: `CCCCCCCCCCCCCCCCn1cnc2c(Cl)ncnc21`
# output 92 % of control

# input Try this compound next: `Cc1nn(-c2ccccc2)c2[nH]cnc(=S)c12`
# output 97 % of control

# input Would you mind doing [CH3][Sn]1([CH3])[O]C2C(CO)OC(n3cnc4c(=O)[nH]c(N)nc43)C2[O]1 (stereo not given) as well?
# output 93 % of control

---

Give measured T/C for each item. Keep answers brief.
# System: CD2F1 mice, L1210 leukemia ip, survival T/C
# methodNotes: NCI In Vivo Anticancer Drug Screen. Data for tumor model L1210 Leukemia (intraperitoneal) in CD2F1 (CDF1) mice
# conditionsUsed: endpoint: mean survival time; dose: 400.0 mg/kg/injection; schedule: Q01DX001 (ip); vehicle: saline; higher = longer survival
Toxic doses and inconclusive results are not listed.

# input What value of T/C has been recorded for this entry: `C=CC(=O)NC(C)(C)CC(C)=O`
# output 102 % of control

# input Can you check `O=[N+]([O-])c1ccc(/C(CBr)=N/N2CCCCC2)cc1` next?
# output 92 % of control

# input Another molecule: `O=C(Cc1ccc([N+](=O)[O-])cc1)Nc1ccc(S(=O)(=O)F)cc1`
# output 100 % of control

# input Again, but for `O=C(O)C(=O)O`
# output 97 % of control

---

I'd appreciate it if you could supply T/C values for the items below.
# System: CD2F1 mice, L1210 leukemia ip, survival T/C
# methodNotes: NCI In Vivo Anticancer Drug Screen. Data for tumor model L1210 Leukemia (intraperitoneal) in CD2F1 (CDF1) mice
# conditionsUsed: endpoint: median survival time; dose: 200.0 mg/kg/injection; schedule: Q01DX005 (ip); vehicle: saline with Tween-80; higher = longer survival
Toxic doses and inconclusive results are not listed.

# input Any idea what its T/C is? The molecule is N#Cc1cnn2ccn(C3OC(COC(=O)c4ccccc4)C(OC(=O)c4ccccc4)C3OC(=O)c3ccccc3)c12 (configuration not stated)
# output 94 % of control

# input Continue with Cc1cn2c(nc1=O)OC1C(O)C(CCl)OC12 (configuration not stated)
# output 94 % of control

# input And what about the molecule CSc1nc(NC2OCC(O)C(O)C2O)c(Br)c(=O)n1C (configuration not stated) ?
# output 98 % of control

# input What about `CC(=O)/C(=C\c1ccc(/C=C(\C(C)=O)C(=O)CCN(C)C)cc1)C(=O)CCN(C)C` ?
# output 98 % of control

# input // query: CSc1nc(NC2OCC(O)C(O)C2O)c(Br)c(=O)[nH]1 (configuration not stated)
# output 101 % of control

# input Input CC(=O)OCC1OC(n2ccc(-n3cncn3)nc2=O)CC1N=[N+]=[N-] (configuration not stated)
# output 93 % of control

# input Param item: CSc1nc(N)c2cnn(C3OC(CO)C(O)C3O)c2n1 (configuration not stated)
# output 94 % of control

---

# System: CD2F1 mice, L1210 leukemia ip, survival T/C
# methodNotes: NCI In Vivo Anticancer Drug Screen. Data for tumor model L1210 Leukemia (intraperitoneal) in CD2F1 (CDF1) mice
# conditionsUsed: endpoint: mean survival time; dose: 25.0 mg/kg/injection; schedule: Q01DX009 (ip); vehicle: Klucel (hydroxypropylcellulose) (HPC); higher = longer survival
Toxic doses and inconclusive results are not listed.
quantityKind: T/C

# input Name the reported T/C value associated with the compound `CCN(CC)CCNc1ccc(CO)c2sc3ccccc3c(=O)c12`
# output 102 % of control

# input Same again, this time with `CCOC(=O)CC(C)(C)NCc1ccccc1`
# output 91 % of control

# input Would you kindly repeat that for `CC(=O)CC(C)(C)C1CCCCC1` ?
# output 93 % of control

# input Here is the next compound: Cc1cc(N(CC(C)Br)CC(C)Br)ccc1N=Nc1ccccc1C(=O)O (stereo not drawn)
# output 119 % of control

# input What about `CC(=O)Nc1c(Cl)c(Cl)c2c(c1Cl)Cc1cc(Br)ccc1-2` ?
# output 109 % of control

# input Entry to check: `FC(F)(F)c1cccc([PH+](c2cccc(C(F)(F)F)c2)c2cccc(C(F)(F)F)c2)c1.FC(F)(F)c1cccc([PH+](c2cccc(C(F)(F)F)c2)c2cccc(C(F)(F)F)c2)c1.[Cl][Hg][Cl]`
# output 108 % of control

# input Could you do the same for CC1C=NNC1=O (stereo not drawn) , please?
# output 110 % of control

# input Try this compound too: `C/C(=N\O)c1ccccn1`
# output 95 % of control

---

# Tested on: CD2F1 mice, L1210 leukemia ip, survival T/C
# methodNotes: NCI In Vivo Anticancer Drug Screen. Data for tumor model L1210 Leukemia (intraperitoneal) in CD2F1 (CDF1) mice
# conditionsUsed: endpoint: mean survival time; dose: 200.0 mg/kg/injection; schedule: Q01DX001 (ip); vehicle: saline with Tween-80; higher = longer survival
Toxic doses and inconclusive results are not listed.
quantityKind: T/C

# input # lookup: T/C of `Cc1ccc(S)cc1`
# output 90 % of control

# input Please give the result for `FC(F)(F)C(F)(F)CI` too.
# output 98 % of control

# input Same for `O=C(/C=C/c1ccccc1)NC1CC1`
# output 89 % of control

# input Check CC1CC(C)(C)NC(C)(C(C)CC(C)(C)C)O1 (stereo not given) too.
# output 93 % of control

# input Quick one: `CCOc1ccc(-n2c(=O)c(N=Nc3ccccc3OC)c(O)n(-c3ccc(C)cc3)c2=S)cc1`
# output 101 % of control

---

Please go through the items and note down their T/C.
# Tested on: CD2F1 mice, L1210 leukemia ip, survival T/C
# methodNotes: NCI In Vivo Anticancer Drug Screen. Data for tumor model L1210 Leukemia (intraperitoneal) in CD2F1 (CDF1) mice
# conditionsUsed: endpoint: mean survival time; dose: 75.0 mg/kg/injection; schedule: Q04DX003 (ip); vehicle: saline; higher = longer survival
Toxic doses and inconclusive results are not listed. Non-standard residues stand in square brackets, D forms with d. Residues, ends and D or L forms follow the SMILES beside them. ξ: configuration not given here. *: point of attachment. ξW = NC(Cc1c[nH]c2ccccc12)C(=O)O; Cbz = O=C(OCc1ccccc1)*

# input Report T/C for NC(=O)CNC(=O)C(Cc1c[nH]c2ccccc12)NC(=O)OCc1ccccc1 (centres undefined) (Cbz-[ξW]-Gly-NH2) please.
# output 93 % of control

# input Next molecule up: C[N+]1=C(c2ccccc2)CCC(C(C)(C)C)C1 (centres undefined)
# output 96 % of control

# input // query: O=C(Nc1ccc2ccccc2c1)OC1CCS(=O)(=O)C1 (centres undefined)
# output 102 % of control

# input Let us now turn to `C=C[Si](c1ccccc1)(c1ccccc1)c1ccccc1`
# output 95 % of control

---

Exercise: state measured T/C for each of the compounds provided.
# System: CD2F1 mice, L1210 leukemia ip, survival T/C
# methodNotes: NCI In Vivo Anticancer Drug Screen. Data for tumor model L1210 Leukemia (intraperitoneal) in CD2F1 (CDF1) mice
# conditionsUsed: endpoint: mean survival time; dose: 200.0 mg/kg/injection; schedule: Q04DX003 (ip); vehicle: saline; higher = longer survival
Inconclusive results and toxic doses are left out.

# input Request - read-out T/C | tested on CD2F1 mice, L1210 leukemia ip, survival T/C | compound `CC(C)O.CC(C)O.CC(C)O.[La]`
# output 87 % of control

# input Quick one: `N=C(N)c1ccc(N)cc1`
# output 101 % of control

# input How about this compound: `Cc1ccc(P(=O)(O)O)c([N+](=O)[O-])c1`
# output 105 % of control

# input And for COCCC1(CN2c3ccccc3Sc3ccccc32)CCN(C)C1 (stereo unspecified) ?
# output 96 % of control

# input Request: `CCOC(=O)C(F)(C(=O)OCC)[N+](=O)[O-]`
# output 88 % of control

# input Input `CCCCOC(=O)c1ccc(NC(=O)NCCC)cc1`
# output 101 % of control

# input Do the same for `CN(C)CCP(=O)(O)O` please
# output 98 % of control

# input Ok, now `CCOC(=O)c1csc(-c2csc(CCNC(=O)c3ccccc3)n2)n1`
# output 101 % of control

# input What about this compound? `Nc1n[nH]c(N)n1`
# output 106 % of control

# input Same thing, different compound: `O=C(C[n+]1cccc(C(=O)Nc2ccc(Cl)cc2)c1)NCc1ccccc1`
# output 94 % of control

# input Input `c1ccc(CCSc2ncnc3nc[nH]c23)cc1`
# output 103 % of control

The reported numbers originate from PubChem BioAssay AID256.
